target: T1, biotinylated synthetic human Amyloid beta 1-42 peptide (human, UniProt P05067 672-713, biotinylated (N-terminal biotin in Example 4)); test: SPR (ProteOn); biotinylated peptide on streptavidin chip, scFv in solution
T1 construct: domain: Amyloid beta 1-42 peptide; Numbers 1-42 count on the Amyloid beta peptide, not on APP; also called biotinylated human Amyloid beta 1-42; N-terminal biotin Abeta 1-42
T1 sequence (P05067 672-713 limits assumed): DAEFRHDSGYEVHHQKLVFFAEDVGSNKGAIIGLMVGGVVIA
quantity.name: pKd
Scale note: pKd = -log10(concentration in M).

Short answer for Abet0343 scFv (scFv, V domains shown, not shown: small tags and cut ends, Purified scFv expressed in E. coli) VH: EVQLLESGGGLVQPGGSLRLSCAASGFNFNHQVMWWVRQAPGKGLEWVSVIGKTNENIAYADSVKGRFTISRDNSKNTLYLQMNSLRAEDTAVYYCAREWMDHSRPYYYYGMDVWGQGTLVTVSS VL: QSVLTQPPSVSVSPGQTASITCSGHNLEDKFASWYQQKSGQSPVLVIYRDDKRPSGIPERFSASNSGHTATLTISGTQATDEADYYCSSQDTVTRVFGGGTKLTVL : pKd was 9.73
